tested on: HGC27 (Human Gastric Cancer Cell); assay: Bioactivity assay for HGC27 cell growth inhibition (CellTiter-Glo); assay type: cell-based; details: HGC-27, HGC27 cells, 24 hours, CellTiter-Glo, highest concentration 10 μM, read-out: HGC27 CTG IC50
parameter_measured: log10(IC50) (log10 of the value in nM)

[[record]]
record_smiles = "CO[C@@H](C)[C@H](C#N)Nc1nc(NCc2ccc3c(c2)[nH]c2c(CO)ccnc23)ncc1C(F)(F)F"
parameter_measured = "log10(IC50)"
reported = 1.83

[[record]]
record_smiles = "NCc1ccnc2c1[nH]c1cc(CNc3ncc(C(F)(F)F)c(N[C@@H](C(N)=O)C4CCC4)n3)ccc12"
parameter_measured = "log10(IC50)"
reported = 1.40

[[record]]
record_smiles = "CO[C@@H](C)[C@@H](Nc1nc(NCc2ccc3c(c2)[nH]c2c(CO)ccnc23)ncc1C(F)(F)F)C(N)=O"
parameter_measured = "log10(IC50)"
reported = 1.45

[[record]]
record_smiles = "Cc1ccnc2c1[nH]c1cc(CNc3ncc(C(F)(F)F)c(N[C@H](C)[C@@H](C)O)n3)ccc12"
parameter_measured = "log10(IC50)"
reported = 1.56

[[record]]
record_smiles = "C[C@@H](O)[C@@H](CO)Nc1nc(NCc2ccc3c(c2)[nH]c2cccnc23)ncc1C(F)(F)F"
parameter_measured = "log10(IC50)"
reported = 1.48

[[record]]
record_smiles = "CC[C@@H](Nc1nc(NCc2ccc3c(c2)[nH]c2cccnc23)ncc1C(F)(F)F)C(N)=O"
parameter_measured = "log10(IC50)"
reported = 2.38

[[record]]
record_smiles = "CO[C@@H](C)[C@@H](Nc1nc(NCc2ccc3c(c2)[nH]c2c(C#N)ccnc23)ncc1C(F)(F)F)C(N)=O"
parameter_measured = "log10(IC50)"
reported = 1.15

[[record]]
record_smiles = "CC(C)[C@@H](Nc1nc(NCc2ccc3c(c2)[nH]c2c(CN)ccnc23)ncc1C(F)(F)F)C(N)=O"
parameter_measured = "log10(IC50)"
reported = 1.72

[[record]]
record_smiles = "CC[C@@H](Nc1nc(NCc2ccc3c(c2)[nH]c2c(CO)ccnc23)ncc1C(F)(F)F)C(N)=O"
parameter_measured = "log10(IC50)"
reported = 1.83

[[record]]
record_smiles = "FC(F)(F)c1cnc(NCc2ccc3c(c2)[nH]c2ncsc23)nc1OC1COC1"
parameter_measured = "log10(IC50)"
reported = 1.88

[[record]]
record_smiles = "OCc1ccnc2c1[nH]c1cc(CNc3ncc(C(F)(F)F)c(OC4COC4)n3)ccc12"
parameter_measured = "log10(IC50)"
reported = 1.63

[[record]]
record_smiles = "Cc1ccc2[nH]c3cc(CNc4ncc(C(F)(F)F)c(OC5COC5)n4)ccc3c2n1"
parameter_measured = "log10(IC50)"
reported = 2.49

[[record]]
record_smiles = "C[C@@H](O)[C@@H](C)Oc1nc(NCc2ccc3c(c2)[nH]c2cccnc23)ncc1C(F)(F)F"
parameter_measured = "log10(IC50)"
reported = 1.79

[[record]]
record_smiles = "COc1ccnc2c1[nH]c1cc(CNc3ncc(C(F)(F)F)c(OC4COC4)n3)ccc12"
parameter_measured = "log10(IC50)"
reported = 2.08

[[record]]
record_smiles = "OCc1ccnc2c3ccc(CNc4ncc(C(F)(F)F)c(N[C@@H]5CNCC[C@@H]5O)n4)cc3nn12"
parameter_measured = "log10(IC50)"
reported = 1.61


###

System: HGC27 (Human Gastric Cancer Cell)
Experiment: Bioactivity assay for HGC27 cell growth inhibition (CellTiter-Glo)
Assay type: cell-based
Conditions: HGC-27, HGC27 cells, 24 hours, CellTiter-Glo, highest concentration 10 μM, read-out: HGC27 CTG IC50
Experimental: This detection method is used to evaluate the biological activity of the compounds of the present disclosure at the cellular level. HGC27 cells (purchased from the Chinese Academy of Sciences) were harvested, resuspended in complete medium and adjusted to a cell density of 0.2×10^6 cells per ml. […] The calculated data were fitted with four parameters using GraphPad Prism software and the corresponding IC50 was calculated.
parameter_measured: IC50 (nM)

[[record]]
record_smiles = "CO[C@@H](C)[C@@H](Nc1nc(NCc2ccc3c(c2)[nH]c2c(CN)ccnc23)ncc1C(F)(F)F)C(N)=O"
target_or_system = "HGC27 (Human Gastric Cancer Cell)"
parameter_measured = "IC50"
reported = 14

[[record]]
record_smiles = "CC(C)[C@@H](Nc1nc(NCc2ccc3c(c2)nn2c(CO)ccnc32)ncc1C(F)(F)F)C(N)=O"
target_or_system = "HGC27 (Human Gastric Cancer Cell)"
parameter_measured = "IC50"
reported = 257

[[record]]
record_smiles = "C[C@@H](O)[C@@H](C)Nc1nc(NCc2ccc3c(c2)nn2c(CN)ccnc32)ncc1C(F)(F)F"
target_or_system = "HGC27 (Human Gastric Cancer Cell)"
parameter_measured = "IC50"
reported = 20

[[record]]
record_smiles = "C[C@@H](O)[C@@H](CO)Nc1nc(NCc2ccc3c(c2)[nH]c2c(C#N)ccnc23)ncc1C(F)(F)F"
target_or_system = "HGC27 (Human Gastric Cancer Cell)"
parameter_measured = "IC50"
reported = 6


###

Here the recorded pIC50 is given for each entry.
test system: HGC27 (Human Gastric Cancer Cell); test: Bioactivity assay for HGC27 cell growth inhibition (CellTiter-Glo); format: cell-based; conditions: HGC-27, HGC27 cells, 24 hours, CellTiter-Glo, highest concentration 10 μM, read-out: HGC27 CTG IC50
pIC50: −log10 of the molar value.
parameter_measured: pIC50

[[record]]
compound = "C[C@@H](O)[C@@H](C)Nc1nc(NCc2ccc3c(c2)[nH]c2c(CN)ccnc23)ncc1C(F)(F)F [Compound 34]"
parameter_measured = "pIC50"
reported = 8.15

[[record]]
compound = "N#Cc1ccnc2c3ccc(CNc4ncc(C(F)(F)F)c(N[C@@H]5CNCC[C@@H]5O)n4)cc3nn12 [Compound 96]"
parameter_measured = "pIC50"
reported = 6.96

[[record]]
compound = "NCc1ccnc2c1[nH]c1cc(CNc3ncc(C(F)(F)F)c(N[C@H](CC4CC4)C(N)=O)n3)ccc12 [Compound 53]"
parameter_measured = "pIC50"
reported = 7.54

[[record]]
compound = "Cc1cc2c(cc1CNc1ncc(C(F)(F)F)c(OC3COC3)n1)[nH]c1cccnc12 [Compound 16]"
parameter_measured = "pIC50"
reported = 6.28

[[record]]
compound = "FC(F)(F)c1cnc(NCc2ccc3c(n2)[nH]c2cccnc23)nc1OC1COC1 [Compound 10]"
parameter_measured = "pIC50"
reported = 6.65

[[record]]
compound = "CC(C)(O)[C@@H](Nc1nc(NCc2ccc3c(c2)[nH]c2c(CN)ccnc23)ncc1C(F)(F)F)C(N)=O [Compound 58]"
parameter_measured = "pIC50"
reported = 6.94

[[record]]
compound = "C[C@@H](O)[C@@H](C)Nc1nc(NCc2ccc3c(c2)nn2c(CO)ccnc32)ncc1C(F)(F)F [Compound 60]"
parameter_measured = "pIC50"
reported = 7.89


###

test system: HGC27 (Human Gastric Cancer Cell); test: Bioactivity assay for HGC27 cell growth inhibition (CellTiter-Glo); assay type: cell-based; conditions: HGC-27, HGC27 cells, 24 hours, CellTiter-Glo, highest concentration 10 μM, read-out: HGC27 CTG IC50
Here the recorded IC50 is given for each entry.
parameter_measured: IC50 (nM)

[[record]]
record_smiles = "N#Cc1ccnc2c1[nH]c1cc(CNc3ncc(C(F)(F)F)c(N[C@@H]4CCNC[C@@H]4O)n3)ccc12"
parameter_measured = "IC50"
reported = 2

[[record]]
record_smiles = "OCc1ccnc2c1[nH]c1cc(CNc3ncc(C(F)(F)F)c(N[C@@H]4CNCC[C@@H]4O)n3)ccc12"
parameter_measured = "IC50"
reported = 38

[[record]]
record_smiles = "C[C@@H](O)[C@@H](C)Oc1nc(NCc2ccc3c(c2)[nH]c2c(CO)ccnc23)ncc1C(F)(F)F"
parameter_measured = "IC50"
reported = 25

[[record]]
record_smiles = "CC[C@@H](Oc1nc(NCc2ccc3c(c2)[nH]c2c(CN)ccnc23)ncc1C(F)(F)F)C(N)=O"
parameter_measured = "IC50"
reported = 409


###

tested on: HGC27 (Human Gastric Cancer Cell); assay: Bioactivity assay for HGC27 cell growth inhibition (CellTiter-Glo); assay type: cell-based; conditions: HGC-27, 24 h, read-out: HGC27 CTG IC50
parameter_measured: IC50 (nM)

[[record]]
compound = "N#Cc1ccnc2c1[nH]c1cc(CNc3ncc(C(F)(F)F)c(N[C@@H]4CNCC[C@@H]4O)n3)ccc12 [Compound 81]"
reported = 2

[[record]]
compound = "CC(C)(C)[C@@H](Nc1nc(NCc2ccc3c(c2)[nH]c2c(CN)ccnc23)ncc1C(F)(F)F)C(N)=O [Compound 55]"
reported = 26

[[record]]
compound = "C[C@@H](O)[C@H](Nc1nc(NCc2ccc3c(c2)[nH]c2c(C#N)ccnc23)ncc1C(F)(F)F)C(N)=O [Compound 95]"
reported = 3

[[record]]
compound = "FC(F)(F)c1cnc(NCc2ccc3c(c2)nn2ccncc32)nc1OC1COC1 [Compound 49]"
reported = 510

[[record]]
compound = "FC(F)(F)c1cnc(NCc2ccc3c(c2)nn2cccnc32)nc1OC1COC1 [Compound 36]"
reported = 133

[[record]]
compound = "N#Cc1ccnc2c1[nH]c1cc(CNc3ncc(C(F)(F)F)c(N[C@@H]4CNCC[C@H]4O)n3)ccc12 [Compound 85]"
reported = 17

